These entries and their values trace back to ChEMBL document CHEMBL5058577.

Test system: U2OS
test.description: Multiplex assay against U2OS
Assay type: toxicity, cell-based
experimental.setup: human, 12 h, 10 µM, compound concentration 10 uM, replicate 2
measure: Population Apoptotic (%)
Report as a plain number; the unit % is understood.

# example entries with known answers
compound	endpoint.unit	Population Apoptotic (%)
N#Cc1c(N)nc(SCc2csc(-c3ccc(Cl)cc3)n2)c(C#N)c1-c1ccc(OCCO)cc1 [CAPADENOSON]	%	68
COc1cc(NC(=O)CCN2CCC(OC(=O)Nc3ccccc3-c3ccccc3)CC2)c(Cl)cc1CNC[C@H](O)c1ccc(O)c2[nH]c(=O)ccc12 [BATEFENTEROL]	%	88
Cl.Clc1ccc2nsnc2c1NC1=NCCN1 [TIZANIDINE HYDROCHLORIDE]	%	90
O=C(NCC(=O)N1CC[C@H](N[C@H]2CC[C@@](O)(c3ccc(-c4ncccn4)cn3)CC2)C1)c1cccc(C(F)(F)F)c1 [PF-4136309]	%	60
Cc1ccc(/C(=C\CN2CCCC2)c2ccccn2)cc1 [TRIPROLIDINE]	%	75
COc1ccc2c(c1)C(C(=O)N(Cc1ccc(N(C)C)cc1)c1ccc(C(C)C)cc1)CCC2.Cl (stereo not given)	%	60
C[C@H]1[C@H]2CC[C@H]3[C@@H]4CC=C5C[C@@H](N(C)C)CC[C@]5(C)[C@H]4CC[C@]23CN1C [CONESSINE]	%	100
CNC[C@H](O)c1ccc(O)c(O)c1 [EPINEPHRINE]	%	86
CC(C)(C)c1ccc(S(=O)(=O)Nc2ccc(Cl)cc2C(=O)c2cc[n+]([O-])cc2)cc1 [VERCIRNON]	%	50
c1cc(OCCCN2CCCCC2)ccc1CN1CCCCC1 [JNJ-5207852]	%	85

Tell me the measured Population Apoptotic (%) of C[C@H](NC(=O)c1c(C(F)F)nn(C)c1Oc1cccc(C(F)(F)F)c1)c1ccc(C(=O)O)cc1 [PALUPIPRANT] , please.
100

Try this compound next: CC(=O)NCCc1c(Cc2ccccc2)[nH]c2ccccc12 [LUZINDOLE]
76

Try this compound next: C[C@@H]1C[C@H]2[C@@H]3CCC4=CC(=O)C=C[C@]4(C)[C@@]3(F)[C@@H](O)C[C@]2(C)[C@@]1(O)C(=O)CO [DEXAMETHASONE]
84

Try this compound next: O=C(O)c1cc2ccccc2c(Cc2c(O)c(C(=O)O)cc3ccccc23)c1O [PAMOIC ACID]
87

Try this compound next: CC[C@H]1OC(=O)[C@H](C)[C@@H](O[C@H]2C[C@@](C)(OC)[C@@H](O)[C@H](C)O2)[C@H](C)[C@@H](O[C@@H]2O[C@H](C)C[C@H](N(C)C)[C@H]2O)[C@@]2(C)CC(C)=C(O2)[C@H](C)[C@@H](O)[C@]1(C)O
73

Try this compound next: COc1c(C)cc(NC(=O)c2nn(Cc3ccc(F)cc3)c3c2CN(C(=O)c2ccc[nH]2)C[C@]3(C)C(N)=O)cc1C
60

Try this compound next: COc1cc(C(=O)N(CCCc2ccccc2)Cc2ccc(CC(=O)O)cc2)cc(OC)c1C
100

Try this compound next: CSc1ccccc1N1CCN(CCCCCC(=O)NC2CCCc3ccccc32)CC1.Cl (stereo not given)
84

Try this compound next: CN(C)CCCc1cc(C(=O)Nc2ccc(-c3ccncc3)cc2)ccc1O.Cl.Cl
42

Try this compound next: Cc1ccc(F)cc1C(=O)Nc1ccc(C(=O)N2Cc3cccn3Cc3ccccc32)c(Cl)c1 [LIXIVAPTAN]
47

Try this compound next: Cc1ccccc1C(=O)Nc1ccc(C(=O)N2CCCC(N(C)C)c3ccccc32)cc1.Cl (stereo not given)
56

###

Tested on: U2OS
test.description: Multiplex assay against U2OS
Format: toxicity, cell-based
experimental.setup: human, 48 h, 10 µM, compound concentration 10 uM, replicate 1
measure: Total Cell Count
Lab note: write the figure by itself, no unit.

# example entries with known answers
molecule	endpoint.value
CCNC1(C(N)=O)CCN(c2ncnc3c2nc(-c2ccccc2Cl)n3-c2ccc(Cl)cc2)CC1	269
CC1(COc2ccc3c(c2)ncn3-c2ccc3cccc(N4CCC(N)CC4)c3n2)COC1	250
O=C(O)c1cc2ccccc2c(Cc2c(O)c(C(=O)O)cc3ccccc23)c1O	455

Query Total Cell Count on U2OS for N[C@@]1(C(=O)O)CO[C@H]2[C@H](C(=O)O)[C@H]21
383

Try this molecule next: Cc1nc2ccc(Oc3ccc(F)cc3)cc2c(=O)n1C[C@H]1CCCN(C(C)C)C1.Cl
380

Try this molecule next: CCOc1c2c(c(OCC)c3ncccc13)CN(c1ccc(CS(=O)(=O)NC(=O)Cc3ccccc3OC)cc1C)C2=O
385

Try this molecule next: Cc1ccccc1C(=O)Nc1ccc(C(=O)N2CCCC(N(C)C)c3ccccc32)cc1.Cl (centres undefined)
206

Try this molecule next: CN(C)CCCc1cc(C(=O)Nc2ccc(-c3ccncc3)cc2)ccc1O.Cl.Cl
352

Try this molecule next: O=C(O)Cc1ccccc1Nc1c(Cl)cccc1Cl
436

###

Test system: Fibroblast
test.description: Multiplex assay against human fibroblast
Type: toxicity, cell-based
experimental.setup: 24 h, 10 µM, compound concentration 10 uM, replicate 2
measure: Population Membrane Permeable-Phenotype (%)
Report as a plain number; the unit % is understood.

# example entries with known answers
compound	endpoint.value
CCCC(CCC)C(=O)O [VALPROIC ACID]	5
CCOc1c2c(c(OCC)c3ncccc13)CN(c1ccc(CS(=O)(=O)NC(=O)Cc3ccccc3OC)cc1C)C2=O	5
COc1cc(C(=O)N(CCCc2ccccc2)Cc2ccc(CC(=O)O)cc2)cc(OC)c1C	5
CC(=O)NCCc1c(Cc2ccccc2)[nH]c2ccccc12 [LUZINDOLE]	5
O=S(=O)(c1ccccc1)c1cnc2c(N3CCNCC3)cccc2c1 [INTEPIRDINE]	3
O=C(O)c1cc2ccccc2c(Cc2c(O)c(C(=O)O)cc3ccccc23)c1O [PAMOIC ACID]	3
C[C@H]1[C@H]2CC[C@H]3[C@@H]4CC=C5C[C@@H](N(C)C)CC[C@]5(C)[C@H]4CC[C@]23CN1C [CONESSINE]	7
COc1c(C)cc(NC(=O)c2nn(Cc3ccc(F)cc3)c3c2CN(C(=O)c2ccc[nH]2)C[C@]3(C)C(N)=O)cc1C	8

From here, focus on the item given below.
Tell me the measured Population Membrane Permeable-Phenotype (%) of O=C1COc2nccc(-c3ccccc3F)c2CN1Cc1cc(C(F)(F)F)cc(C(F)(F)F)c1 , please.
7

###

Tested on: Fibroblast
test.description: Multiplex assay against human fibroblast
Assay type: toxicity, cell-based
experimental.setup: 48 h, 1 µM, compound concentration 1 uM, replicate 1
Reported values of Population Mitochondria Different-Phenotype (%) for individual entries
Report as a plain number; the unit % is understood.

# example entries with known answers
compound	measured.target	endpoint.value
CCCn1c(=O)c2[nH]c(C3CCCC3)nc2n(CCC)c1=O	Fibroblast	1
O=C(O)Cc1ccccc1Nc1c(Cl)cccc1Cl [DICLOFENAC]	Fibroblast	4

Tell me the measured Population Mitochondria Different-Phenotype (%) of COc1c(C)cc(NC(=O)c2nn(Cc3ccc(F)cc3)c3c2CN(C(=O)c2ccc[nH]2)C[C@]3(C)C(N)=O)cc1C , please.
10

Try this compound next: CC(=O)NCCc1c(Cc2ccccc2)[nH]c2ccccc12 [LUZINDOLE]
3

Try this compound next: O=C1COc2nccc(-c3ccccc3F)c2CN1Cc1cc(C(F)(F)F)cc(C(F)(F)F)c1
4

###

Reported values of Total Cell Count for individual entries
Test system: Fibroblast
test.description: Multiplex assay against human fibroblast
Format: toxicity, cell-based
experimental.setup: 12 h, 1 µM, compound concentration 1 uM, replicate 1
Lab note: write the figure by itself, no unit.

compound	measured.target	Total Cell Count
Cc1ccc(C(C)(O)c2nc3ccccc3s2)c(C)c1 (stereo not drawn)	Fibroblast	125
CN(C)c1ccnc2sc3c(=O)n(N4CCCCCC4)cnc3c12	Fibroblast	144

From here, focus on the item given below.
Tell me the measured Total Cell Count of CCCN1CCC[C@@H]2Cc3n[nH]cc3C[C@H]21.Cl [QUINPIROLE HYDROCHLORIDE] , please.
156

###

Test system: HEK-293T
test.description: Multiplex assay against HEK293T
Assay type: toxicity, cell-based
experimental.setup: human, 24 h, 1 µM, compound concentration 1 uM, replicate 1
measure: Population Pyknosed Nuclei (%)
Report as a plain number; the unit % is understood.

# example entries with known answers
molecule	measured.target	endpoint.value
CNC[C@H](O)c1ccc(O)c(O)c1 [EPINEPHRINE]	HEK-293T	9
N#Cc1c(N)nc(SCc2csc(-c3ccc(Cl)cc3)n2)c(C#N)c1-c1ccc(OCCO)cc1	HEK-293T	17
COc1c(C)cc(NC(=O)c2nn(Cc3ccc(F)cc3)c3c2CN(C(=O)c2ccc[nH]2)C[C@]3(C)C(N)=O)cc1C	HEK-293T	12
CCCN1CCC[C@@H]2Cc3n[nH]cc3C[C@H]21.Cl [QUINPIROLE HYDROCHLORIDE]	HEK-293T	8
Oc1c(CN2CCN(c3ccccn3)CC2)cc(Cl)c2cccnc12	HEK-293T	9

Tell me the measured Population Pyknosed Nuclei (%) of N[C@@]1(C(=O)O)CO[C@H]2[C@H](C(=O)O)[C@H]21 , please.
11

Try this molecule next: CCCn1c(=O)c2[nH]c(C3CCCC3)nc2n(CCC)c1=O
13

Try this molecule next: CN(C)c1ccnc2sc3c(=O)n(N4CCCCCC4)cnc3c12
12

Try this molecule next: CN1CCN(c2nc3cc(C(F)(F)F)ccc3n3cccc23)CC1.O=C(O)/C=C\C(=O)O.O=C(O)/C=C\C(=O)O
9

Try this molecule next: C[C@H](NC(=O)c1c(C(F)F)nn(C)c1Oc1cccc(C(F)(F)F)c1)c1ccc(C(=O)O)cc1
10

Try this molecule next: COc1cc(NC(=O)CCN2CCC(OC(=O)Nc3ccccc3-c3ccccc3)CC2)c(Cl)cc1CNC[C@H](O)c1ccc(O)c2[nH]c(=O)ccc12
12

Try this molecule next: Cc1ccc(C(C)(O)c2nc3ccccc3s2)c(C)c1 (stereo unspecified)
8

Try this molecule next: Cc1ccc(/C(=C\CN2CCCC2)c2ccccn2)cc1
10

Try this molecule next: O=C(O)Cc1ccccc1Nc1c(Cl)cccc1Cl
15

Try this molecule next: CC[C@H]1OC(=O)[C@H](C)[C@@H](O[C@H]2C[C@@](C)(OC)[C@@H](O)[C@H](C)O2)[C@H](C)[C@@H](O[C@@H]2O[C@H](C)C[C@H](N(C)C)[C@H]2O)[C@@]2(C)CC(C)=C(O2)[C@H](C)[C@@H](O)[C@]1(C)O
13

Try this molecule next: C[C@H]1[C@H]2CC[C@H]3[C@@H]4CC=C5C[C@@H](N(C)C)CC[C@]5(C)[C@H]4CC[C@]23CN1C
10
